System: Staphylococcus aureus
Assay: Antimicrobial activity against macrolide-sensitive Staphylococcus aureus ATCC 13709
Type: functional
VALUE_KIND: MIC (µg/mL)
Write it as a number; the unit µg/mL goes unstated.

Below are worked cases with known answers.
CPD_SMILES | MIC / µg/mL
CC[C@H]1OC(=O)[C@H](C)[C@@H](O[C@H]2C[C@@](C)(OC)[C@@H](OC(=O)CCNCC(=O)Nc3cnc4ccccc4c3)[C@H](C)O2)[C@H](C)[C@@H](O[C@@H]2O[C@H](C)C[C@H](N(C)C)[C@H]2O)[C@](C)(OC)C[C@@H](C)NC(=O)[C@H](C)[C@@H](O)[C@]1(C)O | 2
CC[C@H]1OC(=O)[C@H](C)[C@@H](O[C@H]2C[C@@](C)(OC)[C@@H](OC(=O)CCNCCNc3cc4c(cc3F)c(=O)c(C(=O)O)cn4C3CC3)[C@H](C)O2)[C@H](C)[C@@H](O[C@@H]2O[C@H](C)C[C@H](N(C)C)[C@H]2O)[C@](C)(O)C[C@@H](C)NC(=O)[C@H](C)[C@@H](O)[C@]1(C)O | 0.25
CC[C@H]1OC(=O)[C@H](C)[C@@H](O[C@H]2C[C@@](C)(OC)[C@@H](OC(=O)CCN3CCN(c4cc5c(cc4F)c(=O)ccn5C4CC4)CC3)[C@H](C)O2)[C@H](C)[C@@H](O[C@@H]2O[C@H](C)C[C@H](N(C)C)[C@H]2O)[C@](C)(O)C[C@@H](C)NC(=O)[C@H](C)[C@@H](O)[C@]1(C)O | 1

q: Note down MIC recorded for CC[C@H]1OC(=O)[C@H](C)[C@@H](O[C@H]2C[C@@](C)(OC)[C@@H](OC(=O)CCNCC(=O)Nc3cccc4ncccc34)[C@H](C)O2)[C@H](C)[C@@H](O[C@@H]2O[C@H](C)C[C@H](N(C)C)[C@H]2O)[C@](C)(OC)C[C@@H](C)NC(=O)[C@H](C)[C@@H](O)[C@]1(C)O
a: 8

q: Note down MIC recorded for CC[C@H]1OC(=O)[C@H](C)[C@@H](O[C@H]2C[C@@](C)(OC)[C@@H](OC(=O)CCNCC(=O)Nc3ccc([N+](=O)[O-])cc3)[C@H](C)O2)[C@H](C)[C@@H](O[C@@H]2O[C@H](C)C[C@H](N(C)C)[C@H]2O)[C@](C)(O)C[C@@H](C)NC(=O)[C@H](C)[C@@H](O)[C@]1(C)O
a: 2

---

Some molecules, each annotated with its measured MIC.
Tested on: Staphylococcus aureus
Test: Antimicrobial activity against macrolide-sensitive Staphylococcus aureus ATCC 13709
Assay type: functional
Write it as a number; the unit µg/mL goes unstated.

CPD_SMILES | OBSERVED_RESULT
CC[C@H]1OC(=O)[C@H](C)[C@@H](O[C@H]2C[C@@](C)(OC)[C@@H](OC(=O)CCNCC(=O)Nc3ccc([N+](=O)[O-])cc3)[C@H](C)O2)[C@H](C)[C@@H](O[C@@H]2O[C@H](C)C[C@H](N(C)C)[C@H]2O)[C@](C)(OC)C[C@@H](C)NC(=O)[C@H](C)[C@@H](O)[C@]1(C)O | 1

q: Note down MIC recorded for CC[C@H]1OC(=O)[C@H](C)[C@@H](O[C@H]2C[C@@](C)(OC)[C@@H](OC(=O)CCNCC(=O)Nc3ccc4ccccc4c3)[C@H](C)O2)[C@H](C)[C@@H](O[C@@H]2O[C@H](C)C[C@H](N(C)C)[C@H]2O)[C@](C)(O)C[C@@H](C)NC(=O)[C@H](C)[C@@H](O)[C@]1(C)O
a: 4
